- targetDesc: Histone deacetylase 2 (Homo sapiens)
- experiment: Inhibition of full-length recombinant human C-terminal GST tagged HDAC2 expressed in Sf9 insect cells using aminoluciferin peptide substrate at 100 nM preincubated for 3 hrs followed by substrate addition and measured after 30 mins by HDAC-Glo I/II chemiluminescence assay
- conditionLabel: time 3.5 hrs
measuredAttribute: inhibition (%)
Write the value in % as a bare number.

Some compounds with known inhibition results, for comparison:
lineNotation: Nc1ccc(-c2cccs2)cc1NC(=O)c1ccc(-c2cn(-c3ccccc3-c3ccccc3)nn2)s1
measuredAttribute: inhibition
resultUnits: %
resultValue: 0
//
lineNotation: Nc1ccc(-c2ccc(F)cc2)cc1NC(=O)CCc1cn(CCc2ccsc2)nn1
measuredAttribute: inhibition
resultUnits: %
resultValue: 16
//
lineNotation: Nc1ccc(-c2cccs2)cc1NC(=O)CCc1cn(CCCCCC(=O)O)nn1
measuredAttribute: inhibition
resultUnits: %
resultValue: 6
//
lineNotation: Nc1ccc(-c2ccccc2)cc1NC(=O)c1cn(-c2ccc(I)cc2)nn1
measuredAttribute: inhibition
resultUnits: %
resultValue: 0
//
lineNotation: Nc1ccc(-c2ccccc2)cc1NC(=O)c1cn(CCCc2ccccc2)nn1
measuredAttribute: inhibition
resultUnits: %
resultValue: 6

Input line: Report inhibition for COc1ccc(-n2cc(-c3ccc(C(=O)Nc4cc(-c5cccs5)ccc4N)s3)nn2)cc1 please.
Output line: 5

Input line: Continue with Nc1ccc(-c2cccs2)cc1NC(=O)c1cn(Cc2ccc3ccccc3n2)nn1
Output line: 12

Input line: Do the same for Nc1ccc(-c2ccsc2)cc1NC(=O)c1cn(CC23CC4CC(CC(C4)C2)C3)nn1 please
Output line: 0

Input line: Queued: Nc1ccc(-c2ccccc2)cc1NC(=O)CCc1cn(Cc2ccc(C(=O)O)cc2)nn1
Output line: 27

Input line: Please answer likewise for Nc1ccc(-c2cccs2)cc1NC(=O)c1ccc(-c2cn(Cc3cc4ccccc4s3)nn2)s1
Output line: 0

###

- targetDesc: Histone deacetylase 2 (Homo sapiens, UniProt Q92769)
- Sequence (Q92769 whole entry): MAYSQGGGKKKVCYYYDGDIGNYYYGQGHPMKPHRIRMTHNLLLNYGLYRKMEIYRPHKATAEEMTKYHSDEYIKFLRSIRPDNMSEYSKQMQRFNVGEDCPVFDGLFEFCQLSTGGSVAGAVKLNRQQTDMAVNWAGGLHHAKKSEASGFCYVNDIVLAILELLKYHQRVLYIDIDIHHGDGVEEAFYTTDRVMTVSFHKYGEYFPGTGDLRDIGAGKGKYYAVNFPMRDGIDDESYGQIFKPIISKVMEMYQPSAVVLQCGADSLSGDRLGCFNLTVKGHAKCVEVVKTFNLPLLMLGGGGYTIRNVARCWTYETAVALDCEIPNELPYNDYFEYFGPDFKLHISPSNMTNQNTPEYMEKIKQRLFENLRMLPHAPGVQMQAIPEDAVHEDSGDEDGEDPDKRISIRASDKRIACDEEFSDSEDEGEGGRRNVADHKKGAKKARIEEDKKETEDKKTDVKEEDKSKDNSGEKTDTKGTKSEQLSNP
- experiment: Inhibition of full-length recombinant human C-terminal GST tagged HDAC2 expressed in Sf9 insect cells using aminoluciferin peptide substrate at 100 nM preincubated for 3 hrs followed by substrate addition and measured after 30 mins by HDAC-Glo I/II chemiluminescence assay
- conditionLabel: time 3.5 hrs
Quick reference: inhibition of the listed items.
Report the value in % with no unit label.

compound: Nc1ccc(-c2cccs2)cc1NC(=O)c1cccc(-c2cn(C[S+]([O-])c3ccccc3)nn2)c1 (centres undefined)
targetDesc: Histone deacetylase 2 (Homo sapiens, UniProt Q92769)
measuredAttribute: inhibition
resultUnits: %
resultValue: 6

Input line: Form entry - test system: Histone deacetylase 2 (Homo sapiens, UniProt Q92769); read-out: inhibition; compound: Cc1ccccc1CCn1cc(-c2ccc(C(=O)Nc3cc(-c4cccs4)ccc3N)cc2)nn1
Output line: 0

Input line: Also Nc1ccc(-c2cccs2)cc1NC(=O)c1cn(CCc2c[nH]c3ccccc23)nn1 ?
Output line: 14

Input line: Can you handle Nc1ccc(-c2cccs2)cc1NC(=O)c1ccc(-c2cn(CCc3cccc(C(F)(F)F)c3)nn2)cc1 next?
Output line: 3

Input line: Queued: Nc1ccc(-n2cc(CCC(=O)Nc3cc(-c4ccc(F)cc4)ccc3N)nn2)cc1
Output line: 21

Input line: Same again, this time with Nc1ccc(-c2ccccc2)cc1NC(=O)c1cn(CC23CC4CC(CC(C4)C2)C3)nn1
Output line: 0

Input line: Next entry: Cc1cccc(CCn2cc(CCC(=O)Nc3cc(-c4cccs4)ccc3N)nn2)c1
Output line: 24

Input line: How about Nc1ccc(-c2ccccc2)cc1NC(=O)c1cn(CCc2cccc3ccccc23)nn1 ?
Output line: 0

Input line: Also check Nc1ccc(-c2cccs2)cc1NC(=O)c1cn(CC2CCCCC2)nn1
Output line: 1

###

Parameter: inhibition. Scope: all listed entries.
- targetDesc: UniProt:Q92769
- experiment: Inhibition of full-length recombinant human C-terminal GST tagged HDAC2 expressed in Sf9 insect cells using aminoluciferin peptide substrate at 100 nM preincubated for 3 hrs followed by substrate addition and measured after 30 mins by HDAC-Glo I/II chemiluminescence assay
- conditionLabel: time 3.5 hrs
Write down the numeric answer in % and omit the unit.

lineNotation: Nc1ccc(-c2ccsc2)cc1NC(=O)c1cn(CCC2CCCC2)nn1
targetDesc: UniProt:Q92769
resultValue: 0

Input line: Dear colleague, I am looking for the recorded inhibition of the following molecule: Nc1ccc(-c2cccs2)cc1NC(=O)c1ccc(-c2cn(CC34CC5CC(CC(C5)C3)C4)nn2)cc1
Output line: 0

Input line: Quick one: Nc1ccc(-c2ccccc2)cc1NC(=O)c1cn(-c2ccc(O)cc2)nn1
Output line: 0

Input line: Now try Nc1ccc(-c2cccnc2)cc1NC(=O)CCc1cn(CS(=O)(=O)c2ccccc2)nn1 .
Output line: 4

Input line: Item: Nc1ccc(-c2ccsc2)cc1NC(=O)CCc1cn(Cc2ccc(Oc3ccccc3)cc2)nn1
Output line: 0

Input line: Likewise for Nc1ccc(-c2ccc(F)cc2)cc1NC(=O)CCc1cn(CCC2CCCCC2)nn1 ?
Output line: 2

Input line: What would you report for Nc1ccc(-c2cccs2)cc1NC(=O)c1ccc(-c2cn(CCc3ccc(C(F)(F)F)cc3)nn2)cc1 ?
Output line: 0

Input line: One more molecule: Nc1ccc(-c2cccs2)cc1NC(=O)c1cn(CCc2cccc(F)c2)nn1
Output line: 0

Input line: Also need COc1ccc(Cn2cc(C(=O)Nc3cc(-c4ccsc4)ccc3N)nn2)cc1 , thanks.
Output line: 25

###

inhibition reference
- targetDesc: Histone deacetylase 2 (Homo sapiens, UniProt Q92769)
- experiment: Inhibition of full-length recombinant human C-terminal GST tagged HDAC2 expressed in Sf9 insect cells using aminoluciferin peptide substrate at 100 nM preincubated for 3 hrs followed by substrate addition and measured after 30 mins by HDAC-Glo I/II chemiluminescence assay
- conditionLabel: time 3.5 hrs
Write your answer as a measured quantity: the number, then the unit.

Completed entries (count: 5):
lineNotation: Nc1ccc(-c2ccccc2)cc1NC(=O)CCc1cn(CCc2cccc(F)c2)nn1
resultValue: 1%
//
lineNotation: Nc1ccc(-c2cccs2)cc1NC(=O)c1ccc(-c2cn(/C=C/c3ccccc3)nn2)cc1
resultValue: 0%
//
lineNotation: Nc1ccc(-c2ccccc2)cc1NC(=O)CCc1cn(CCc2ccsc2)nn1
resultValue: 0%
//
lineNotation: Nc1ccc(-c2cccs2)cc1NC(=O)c1ccc(-c2cn(CCCCCCCC(=O)O)nn2)cc1
resultValue: 0%
//
lineNotation: Nc1ccc(-c2ccsc2)cc1NC(=O)c1cn(CCc2cccc([N+](=O)[O-])c2)nn1
resultValue: 1%

Input line: Entry Nc1ccc(-c2ccccc2)cc1NC(=O)c1cn(CCc2c[nH]c3ccccc23)nn1 : reported inhibition = ?
Output line: 0%

Input line: Next molecule: Nc1ccc(-c2cccs2)cc1NC(=O)c1ccc(-c2cn(CCc3ccccc3C(F)(F)F)nn2)cc1
Output line: 0%

Input line: Same question for Nc1ccc(-c2ccccc2)cc1NC(=O)c1cn(Cc2ccc(C(=O)O)cc2)nn1 please.
Output line: 27%

Input line: Do the same for Nc1ccc(-c2cccnc2)cc1NC(=O)CCc1cn(Cc2ccc(OC(F)(F)F)cc2)nn1 please
Output line: 3%

###

- targetDesc: Histone deacetylase 2 (Homo sapiens, UniProt Q92769)
- experiment: Inhibition of full-length recombinant human C-terminal GST tagged HDAC2 expressed in Sf9 insect cells using aminoluciferin peptide substrate at 100 nM preincubated for 3 hrs followed by substrate addition and measured after 30 mins by HDAC-Glo I/II chemiluminescence assay
- conditionLabel: time 3.5 hrs
measuredAttribute: inhibition (%)
Enter your answer as a number in %; do not include the unit.

lineNotation: COc1ccc(-n2cc(-c3cccc(C(=O)Nc4cc(-c5cccs5)ccc4N)c3)nn2)cc1
inhibition / %: 14

lineNotation: Nc1ccc(-c2cccs2)cc1NC(=O)c1cccc(-c2cn(CCc3cccc(F)c3)nn2)c1
inhibition / %: 0

lineNotation: COc1ccc(Cn2cc(CCC(=O)Nc3cc(-c4cccnc4)ccc3N)nn2)cc1
inhibition / %: 10

lineNotation: Nc1ccc(-c2cccs2)cc1NC(=O)c1cn(CCCc2ccccc2)nn1
inhibition / %: 9

lineNotation: COc1ccccc1CCn1cc(-c2cccc(C(=O)Nc3cc(-c4cccs4)ccc3N)c2)nn1
inhibition / %: 3

Input line: # query: inhibition | item Cc1csc(CCn2cc(C(=O)Nc3cc(-c4ccsc4)ccc3N)nn2)n1 | system: Histone deacetylase 2 (Homo sapiens, UniProt Q92769)
Output line: 12

Input line: Same question for Nc1ccc(-c2cccs2)cc1NC(=O)c1cn(CCc2ccccc2)nn1 please.
Output line: 9

Input line: Query Nc1ccc(-c2cccs2)cc1NC(=O)c1cccc(-c2cn(Cc3ccc(-c4ccccc4)cc3)nn2)c1 next
Output line: 0

Input line: Cool, now Nc1ccc(-c2ccsc2)cc1NC(=O)c1cn(CC(=O)Nc2ccc(F)cc2)nn1
Output line: 8

###

- targetDesc: Histone deacetylase 2 (Homo sapiens, UniProt Q92769)
- experiment: Inhibition of full-length recombinant human C-terminal GST tagged HDAC2 expressed in Sf9 insect cells using aminoluciferin peptide substrate at 100 nM preincubated for 3 hrs followed by substrate addition and measured after 30 mins by HDAC-Glo I/II chemiluminescence assay
- conditionLabel: time 3.5 hrs
Param threshold (10%) applies to inhibition; output 1.0 when value >= threshold, 0.0 when value < threshold.

Input line: # check: inhibition of CCc1ccc(Cn2cc(C(=O)Nc3cc(-c4cccs4)ccc3N)nn2)cc1 is greater than or equal to 10%
Output line: 1.0

Input line: Param item: Cc1ccc(-n2cc(CCC(=O)Nc3cc(-c4ccsc4)ccc3N)nn2)cc1C
Output line: 0.0

Input line: Okay, and Nc1ccc(-c2ccsc2)cc1NC(=O)c1cn(CCc2cccc3ccccc23)nn1 ?
Output line: 0.0

Input line: Queued: Nc1ccc(-c2cccs2)cc1NC(=O)c1ccc(-c2cn(CCc3ccc(C(=O)O)cc3)nn2)s1
Output line: 1.0

Input line: Same again, this time with Nc1ccc(-c2cccs2)cc1NC(=O)c1ccc(-c2cn(CS(=O)(=O)c3ccccc3)nn2)s1
Output line: 1.0

Input line: What do you get for Nc1ccc(-c2ccc(F)cc2)cc1NC(=O)c1cn(CCc2ccsc2)nn1 ?
Output line: 0.0

Input line: Also need Nc1ccc(-c2cccs2)cc1NC(=O)c1ccc(-c2cn(C[S+]([O-])c3ccccc3)nn2)s1 (stereo not given) , thanks.
Output line: 1.0

Input line: And for Nc1ccc(-c2ccsc2)cc1NC(=O)c1cn(CCc2ccccc2Cl)nn1 ?
Output line: 0.0
